Attribution: patent US20230151342A1

System: Jurkat cells expressing individual zinc fingers in the protein degradation reporter
experiment-notes: Validation of individual zinc fingers in eGFP/mCherry protein degradation reporter (single reporter degradation experiments)
Type: cell-based
experimental-setup: lenalidomide, repeat experiment, read-out: EC50 len repeat

sequence-text | units-label | EC50
FQCNQCGASFTQPKSLARHLRLH [HZnF_20] | nM | 6.09
FQCNQCGASFTQKGNLLRHIKLH [HZnF_27, reference compound] | nM | 28.2
LQCEICGFTCRQPKSLARHLRLH [HZnF_23] | nM | 4.66
LQCEICGYQCRRKDRMSYHVRSH [HZnF_25] | nM | 3.53
LQCEICGYQCRQPKSLARHLRLH [HZnF_22] | nM | 6.59
FQCPICGLVIKRHSHLIEHLKRH [HZnF_21] | nM | 8.23
LQCEVCGFQCRQPKSLARHLRLH [HZnF_24] | nM | 15
LQCEICGFTCRQKGNLLRHIKLH (FHCNQCGASFTQKGNLLRHIKLH) [HZnF_26] | nM | 29.4

---

Attribute: EC50
Test system: Jurkat cells expressing individual zinc fingers in the protein degradation reporter
experiment-notes: Validation of individual zinc fingers in eGFP/mCherry protein degradation reporter (single reporter degradation experiments)
Assay type: cell-based
experimental-setup: CC-122-induced degradation, eGFP:mCherry ratio, 16 hour incubation, read-out: EC50 cc122
Excerpt: FIG. 18A-18B Validation of individual hybrid zinc finger degrons. (FIG. 18A) Vehicle control-normalized eGFP/mCherry fluorescence ratios measured by flow cytometry for Jurkat cells expressing the indicated minimal 23 amino acid zinc finger degron constructs after treatment with pomalidomide or vehicle control. […] (FIG. 18B) IC50 values for lenalidomide- or pomalidomide-induced degradation of endogenous and hybrid zinc fingers calculated from single reporter degradation experiments. […]

sequence-text | EC50 [µM]
LQCEICGYQCRRKDRMSYHVRSH [HZnF_25] | 0.000693
LQCEICGFTCRQKGNLLRHIKLH (FHCNQCGASFTQKGNLLRHIKLH) [HZnF_26] | 0.0134
FQCNQCGASFTRLSTLIQHQKVH [HZnF_06] | 0.0561
LQCEICGYQCRQPKSLARHLRLH [HZnF_22] | 0.00242
YQCKVCGRAFKRLSTLIQHQKVH [HZnF_15] | 0.0352
LQCEICGYQCRRLSTLIQHQKVH [HZnF_1, label misprinted] | 0.00707
LQCEICGFTCRRHSHLIEHLKRH [HZnF_17] | 0.0734
FACVICGRKFRNRGLMQKHLKNH [HZnF_11, reference compound] | 0.179
YQCKVCGRAFKRVSHLTVHYRIH [8HZnF__19, label misprinted, reference compound] | 0.125
YQCKVCGRAFKQKGNLLRHIKLH [HZnF_14] | 0.026
LQCEICGFTCRQPKSLARHLRLH [HZnF_23] | 0.000983
LQCEICGFTCRQKASLNWHMKKH [HZnF_13, reference compound] | 0.033
FQCPICGLVIKRHSHLIEHLKRH [HZnF_21] | 0.00246
FQCNQCGASFTRHSHLIEHLKRH [HZnF_10] | 0.0324
FQCPICGLVIKRKSYWKRHMVIH [HZnF_16, reference compound] | 0.0502
YRCRACGRACSRLSTLIQHQKVH [HZnF_03, reference compound] | 0.0295
LQCEICGYQCRQRASLNWHMKKH [HZnF_12, reference compound] | 0.037
FQCNQCGASFTQKGNLLRHIKLH [HZnF_27, reference compound] | 0.0335
YGCNECGKNFGRHSHLIEHLKRH [HZnF_09, reference compound] | 0.0682
LQCEVCGFQCRQPKSLARHLRLH [HZnF_24] | 0.00567
FVCPRCGRGFSQPKSLARHLRLH [HZnF_05, reference compound] | 0.00293

---

Let's look at some sequences and their measured EC50.
System: Jurkat cells expressing individual zinc fingers in the protein degradation reporter
experiment-notes: Validation of individual zinc fingers in eGFP/mCherry protein degradation reporter (single reporter degradation experiments)
Type: cell-based
experimental-setup: CC-122-induced degradation, eGFP:mCherry ratio, 16 hour incubation, read-out: EC50 cc122
value-kind: EC50 (nM)

sequence-text | value-kind | recorded-value
FQCNQCGASFTTKGSLIRHHRRH [HZnF_08] | EC50 | 10.1
LQCEICGFTCRWSSHYQYHLRQH [HZnF_04] | EC50 | 101
LQCEVCGFQCRQRASLKYHMTKH [HZnF_01, reference compound] | EC50 | 73.6
FQCNQCGASFTQPKSLARHLRLH [HZnF_20] | EC50 | 5.22
HECKLCGASFRTKGSLIRHHRRH [HZnF_07, reference compound] | EC50 | 58.5
YSCPVCGLRFKRKDRMSYHVRSH [HZnF_02, reference compound] | EC50 | 176
